# targetUnderTest: (7× His)-PSD-95-PDZ2 wild type (UniProt P78352)
# Sequence (P78352 160-246): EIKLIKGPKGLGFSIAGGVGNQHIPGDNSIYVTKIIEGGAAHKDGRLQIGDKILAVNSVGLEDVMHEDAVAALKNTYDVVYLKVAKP
# assay: FP competition
[ ]: non-standard residue; d: D form.
observable: Ki

>>> print(df.to_string())
                                     binder  endpointresult
0  cyclo(THLETTFTGDGMPKTIRVTQ[dP]GQ) (ring closure inferred; not fully specified) [cyclic nNOS β-hairpin peptide T116M]         3.76 µM

Where these numbers come from: patent US20230220021A1
